System: MDA-MB-231
experimental.details: Cell growth inhibition, 4-day proliferation assay, MDA-MB-231
Type: cell-based
condition.label: Homo sapiens, MDA-MB-231; WST-8 assay, Table 7; read-out: Cell growth inhibition (IC50 (nM)) MDA-MB-231
Classes are defined on IC50 with ranges I: < 10 nM; II: ≥ 10 nM and < 100 nM; III: ≥ 100 nM

structure | assigned.class
Cc1nnc(C[C@@H]2N=C(c3ccc(Cl)cc3)c3c(sc(C#CC4CC4)c3C)-n3c(C)nnc32)o1 | I
Cc1c(C#Cc2ccccn2)sc2c1C(c1ccc(Cl)cc1)=N[C@@H](CC(N)=O)c1nnc(C)n1-2 | I
Cc1nnc(C[C@@H]2N=C(c3ccc(Cl)cc3)c3c(sc(C#Cc4ccc(F)cn4)c3C)-n3c(C)nnc32)o1 | II
Cc1c(C#Cc2ccccn2)sc2c1C(c1ccc(Cl)cc1)=N[C@@H](CC(=O)NC1CCOCC1)c1nnc(C)n1-2 | III
CCNC(=O)C[C@@H]1N=C(c2ccc(Cl)cc2)c2c(sc(C#Cc3ccccn3)c2C)-n2c(C)nnc21 | III
Cc1nnc(C[C@@H]2N=C(c3ccc(Cl)cc3)c3c(sc(C#Cc4ccccn4)c3C)-n3c(C)nnc32)s1 | II
Cc1c(C#Cc2cncn2C)sc2c1C(c1ccc(Cl)cc1)=N[C@@H](CC(=O)N1CCN(C(=O)OC(C)(C)C)CC1)c1nnc(C)n1-2 | III
Cc1nnc(C[C@@H]2N=C(c3ccc(Cl)cc3)c3c(sc(C#CC4CCN(C)CC4)c3C)-n3c(C)nnc32)o1 | I
Cc1nnc(C[C@@H]2N=C(c3ccc(Cl)cc3)c3c(sc(C#CC4CCNCC4)c3C)-n3c(C)nnc32)o1 | I
Cc1c(C#Cc2ccccn2)sc2c1C(c1ccc(Cl)cc1)=N[C@@H](CC(=O)N1CCNCC1)c1nnc(C)n1-2 | II
Cc1c(C#Cc2cccnc2)sc2c1C(c1ccc(Cl)cc1)=N[C@@H](CC(=O)N1CCNCC1)c1nnc(C)n1-2 | II
Cc1c(C#Cc2cncn2C)sc2c1C(c1ccc(Cl)cc1)=N[C@@H](CC(=O)N1CCNCC1)c1nnc(C)n1-2 | III
